test name: protein stability index of a GFP-peptide fusion (GPS, HEK-293T) (PSI 1-6); higher = more stable;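 further: 24-mer peptide tiles fused after GFP, lentivirally expressed, FACS-sorted into six equal bins by GFP/DsRed ratio, decoded by Illumina sequencing, PSI is the read-weighted mean bin number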
condition set: treatment: MLN4924 1 uM, 8 h; c terminus: a fixed tail appended
Outcome: true for protein stability index of at least 3; false for anything lower.

# construct sequence, class name
data = [
    ("LSDFEECEETGELFEEPAPQALAT [FCHSD1]", "true"),
    ("TEIAEQEGNQKGEQATSLAILRVI [KCNA1]", "true"),
    ("RNQKGEQVFRLAFRSGALDLDSCS [MYORG]", "false"),
    ("IFATKPHVLPAVLAEVAPVVTTEH [PYCR3]", "true"),
    ("IEKVSVSTQTKKLSASSPRMLHRS [ZMYND11]", "true"),
    ("GIQPGQEPPVTMIFMGYQNVEDEA [PALM]", "true"),
    ("IQSGAWVCYQYPGYRGYQYILECD [CRYBA1]", "false"),
    ("VAAACACGFTVAQIITSLVFHLPF [OR10K2]", "true"),
    ("SDEDDEEERRRRVFDVPIRRRRCS [FBXO3]", "true"),
    ("IKKLIYVHLVIWLLLVAKMSVGHL [JAGN1]", "true"),
    ("QDKSESLSDNATAFSNRSKQLRRQ [VAMP4]", "true"),
    ("LHLASDFFLKHPDKDVRLLVACCL [PDS5B]", "false"),
]

Source of measurements: the supplement of paper PMC10567573
